- Test system: MCF10A
- EXPERIMENTAL_DETAILS: one-nucleolus phenotype percent effect (relative to siNT 0% and siNOL11 100%); higher = more cells with one nucleolus (ribosome biogenesis inhibition)
- TEST_CONDITIONS: 20 nM; 72 h
Response key: Satisfied means one-nucleolus phenotype percent effect >= 10%; Not satisfied means one-nucleolus phenotype percent effect < 10%.

Illustrative cases are given below, each with its answer.
>>> answer_label("UCAGUGCAUGACAGAACUUGG [hsa-miR-152]")
"Not satisfied"
>>> answer_label("UCUGGUGUAUAGCGUUGCUCA [hsa-miR-7978]")
"Satisfied"
>>> answer_label("UUGGCCACAAUGGGUUAGAAC [hsa-miR-588]")
"Not satisfied"
>>> answer_label("CGGGCUGUCCGGAGGGGUCGGCU [hsa-miR-4741]")
"Not satisfied"
>>> answer_label("CAGUGCCUCGGCAGUGCAGCCC [hsa-miR-33b-3p]")
"Not satisfied"
>>> answer_label("CUCUAGAGGGAAGCACUUUCUG [hsa-miR-526a]")
"Not satisfied"

// query Tell me whether one-nucleolus phenotype percent effect is at least 10% here: UCUGAGAGAGCUCGAUGGCAG [hsa-miR-6761-5p]
// result Not satisfied

// query Tell me whether one-nucleolus phenotype percent effect is at least 10% here: GCCCUGACCUGUCCUGUUCUG [hsa-miR-4732-3p]
// result Not satisfied
